B1: library; a variant is named by its letters at N, in order (parent)
chain: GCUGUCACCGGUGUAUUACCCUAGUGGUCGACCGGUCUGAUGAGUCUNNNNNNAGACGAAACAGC

variants of: B1; experiment: normalized RNA/DNA level without ligand (relative to sTRSVctl = 100) (log10 (% of sTRSVctl)); ligand: hypoxanthine (xanthine aptamer); higher = less ribozyme self-cleavage, higher mRNA level; conditions: HEK293T, reporter: mCherry (pCS4076), ligand present: no
metric.name: normalized RNA/DNA level without ligand (log10)
One number for each entry.

Example results:
residue.change: CGCUGA
experimental.result: 1.89
//
residue.change: CCUUUU
experimental.result: 1.89
//
residue.change: UACGCG
experimental.result: 1.62
//
residue.change: GUUAGC
experimental.result: 1.68

Give normalized RNA/DNA level without ligand (log10) for each of the items listed below.
1. CACGGA
2. UUGAGC
3. GCGGAC
4. GGGCAA
5. AACAGA
6. GGCACC
7. CGUUUC

Key:
1: 1.8; 2: 1.89; 3: 1.31; 4: 1.78; 5: 1.64; 6: 1.85; 7: 1.91

Data provenance: the supplement of paper PMC6757056
